B1: HDV Ribozyme (parent)
chain: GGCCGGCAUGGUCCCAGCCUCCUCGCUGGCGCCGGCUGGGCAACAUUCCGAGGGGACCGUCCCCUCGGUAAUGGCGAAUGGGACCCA

Variants of: B1
Experiment: self-cleavage, relative activity (ratio to wild type); higher = more cleavage; co-transcriptional
Parameter: self-cleavage
Lab note: record the figure alone, no unit after it.

Query: I am curious: what self-cleavage value has been reported for U12G A56G ?
Response: 0.767

Query: Same thing, different variant: G31U C57G
Response: 0.439

Query: Same thing, different variant: G28C G82U
Response: 0.102

Query: Same thing, different variant: G5C G59C
Response: 0.0791

Query: Same thing, different variant: G5U C41A
Response: 0.172

Query: Same thing, different variant: C61U A78C
Response: 0.182

Query: Same thing, different variant: G53C U65G
Response: 0.688

Query: Same thing, different variant: G53A C61A
Response: 0.987

Query: Same thing, different variant: C15G C84G
Response: 0.222

Query: Same thing, different variant: C18U U47A
Response: 0.293

Query: Same thing, different variant: G5C G34A
Response: 0.0692

Query: Same thing, different variant: A16U G82U
Response: 1.06

Query: Same thing, different variant: G10U C48G
Response: 0.767

Query: Same thing, different variant: U23G G53C
Response: 0.759

Query: Same thing, different variant: U9A G80A
Response: 0.402

Query: Same thing, different variant: A71G C84U
Response: 0.831

Query: Same thing, different variant: U12C U65G
Response: 0.323

Query: Same thing, different variant: C18A G68C
Response: 0.212

Query: Same thing, different variant: C4U U9A
Response: 0.739

From: the RNAGym collection of RNA variant scans (doi:10.7554/elife.80360)
